System Name: FRMPD2_2, Q68DX3
Sequence (Q68DX3 944-1038): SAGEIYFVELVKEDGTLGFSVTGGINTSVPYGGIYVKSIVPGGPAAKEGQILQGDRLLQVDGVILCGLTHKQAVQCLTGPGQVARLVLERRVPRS
Protocol Description: holdup assay
Parameters: key: below the threshold = too weak to quantify, mostly under pKd 3.1 to 4
Conditions Used: plain residues with an end cap or a label only (N-terminal biotin on a linker: ado-ado)
Property Measured: pKd

INSERT INTO results (binder, property_measured, result) VALUES
  ('SSALYGESDL [ACTN2, P35609]', 'pKd', 'below the threshold'),
  ('EVNETDDTKM [KCNJ1, P48048]', 'pKd', 'below the threshold'),
  ('HLRARKSEWV [GJD4, Q96KN9]', 'pKd', 'below the threshold'),
  ('TLPRKRMSSI [GPRC6A, Q5T6X5]', 'pKd', 'below the threshold');
